# credit: patent US20240043386A1

# assay system: F508delCFTR (Homo sapiens, UniProt P13569, DEL508-508)
# Construct: expressed in transfected cells; host or cells: CFBE41o- human lung-derived epithelial cell line, doxycycline-inducible expression
# Sequence (P13569 with tags, fused parts or gaps DEL508-508): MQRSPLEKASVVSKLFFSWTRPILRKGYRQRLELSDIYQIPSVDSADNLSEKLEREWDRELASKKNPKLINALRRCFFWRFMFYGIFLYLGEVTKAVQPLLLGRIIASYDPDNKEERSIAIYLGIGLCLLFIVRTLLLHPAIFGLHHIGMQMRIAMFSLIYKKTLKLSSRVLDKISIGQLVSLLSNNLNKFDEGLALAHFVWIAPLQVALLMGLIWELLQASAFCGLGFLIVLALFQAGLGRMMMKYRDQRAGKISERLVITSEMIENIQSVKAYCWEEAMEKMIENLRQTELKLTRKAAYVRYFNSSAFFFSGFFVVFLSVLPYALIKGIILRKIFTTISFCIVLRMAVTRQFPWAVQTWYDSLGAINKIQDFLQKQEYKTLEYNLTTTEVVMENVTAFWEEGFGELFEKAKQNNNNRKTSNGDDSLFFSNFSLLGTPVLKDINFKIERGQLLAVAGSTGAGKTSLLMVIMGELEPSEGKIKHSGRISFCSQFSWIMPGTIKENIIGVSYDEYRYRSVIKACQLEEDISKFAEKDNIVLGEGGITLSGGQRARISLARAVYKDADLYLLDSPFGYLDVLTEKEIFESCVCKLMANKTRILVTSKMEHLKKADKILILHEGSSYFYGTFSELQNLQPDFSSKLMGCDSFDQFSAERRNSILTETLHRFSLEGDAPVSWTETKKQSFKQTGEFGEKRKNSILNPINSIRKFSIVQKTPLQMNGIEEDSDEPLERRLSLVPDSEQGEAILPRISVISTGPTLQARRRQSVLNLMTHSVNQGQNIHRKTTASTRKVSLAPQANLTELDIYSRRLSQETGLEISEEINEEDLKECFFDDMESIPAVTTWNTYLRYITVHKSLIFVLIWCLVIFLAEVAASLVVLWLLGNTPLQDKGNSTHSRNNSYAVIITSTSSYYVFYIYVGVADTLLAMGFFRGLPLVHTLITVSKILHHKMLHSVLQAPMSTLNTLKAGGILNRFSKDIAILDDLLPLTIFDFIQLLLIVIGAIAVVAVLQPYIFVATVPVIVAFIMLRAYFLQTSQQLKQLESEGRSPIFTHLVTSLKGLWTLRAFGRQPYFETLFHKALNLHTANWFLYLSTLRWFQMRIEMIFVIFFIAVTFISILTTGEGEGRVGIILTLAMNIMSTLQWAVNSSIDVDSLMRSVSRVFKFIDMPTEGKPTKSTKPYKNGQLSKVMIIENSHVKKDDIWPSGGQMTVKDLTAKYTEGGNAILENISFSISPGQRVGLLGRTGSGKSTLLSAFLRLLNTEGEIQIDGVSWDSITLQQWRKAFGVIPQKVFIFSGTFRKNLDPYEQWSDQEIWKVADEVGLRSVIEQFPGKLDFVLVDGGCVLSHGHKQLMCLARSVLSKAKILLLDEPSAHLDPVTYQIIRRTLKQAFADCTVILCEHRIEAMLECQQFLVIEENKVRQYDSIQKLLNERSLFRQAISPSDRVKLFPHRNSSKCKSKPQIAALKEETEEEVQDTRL
# experiment notes: Cell Surface Expression-Horse Radish Peroxidase (CSE-HRP) assay in CFBE41o-F508delCFTR-HRP cells
# Type: cell-based
# applied conditions: without co-corrector; normalized to on-plate positive control corrector (2 μM)
For each of the compounds below, state its Maximum % activity (without co-corrector).
Give the number; % is assumed, so skip it.

input: Fill in the recorded Maximum % activity (without co-corrector) for this compound, with F508delCFTR (Homo sapiens, UniProt P13569, DEL508-508) as test system: COc1ccc(C)cc1[C@@]1(C(=O)NS(=O)(=O)c2cccc3nc(C)ccc23)C[C@H]1c1ccccc1 (single isomer, unassigned)
output: 523

input: Fill in the recorded Maximum % activity (without co-corrector) for this compound, with F508delCFTR (Homo sapiens, UniProt P13569, DEL508-508) as test system: COc1ccc(C)cc1[C@]1(C(=O)NS(=O)(=O)c2cccc3nc(C)ccc23)C[C@@H]1c1ccc(C(F)F)nc1
output: 482

input: Fill in the recorded Maximum % activity (without co-corrector) for this compound, with F508delCFTR (Homo sapiens, UniProt P13569, DEL508-508) as test system: COc1cccc([C@@H]2C[C@]2(C(=O)NS(=O)(=O)c2cccc3nc(C)ccc23)c2cc(C)ccc2OC)c1 (single isomer, unassigned)
output: 465

input: Fill in the recorded Maximum % activity (without co-corrector) for this compound, with F508delCFTR (Homo sapiens, UniProt P13569, DEL508-508) as test system: COc1ccc(C)cc1[C@@]1(C(=O)NS(=O)(=O)c2cccc3nc(C)ccc23)C[C@H]1c1cnc(C)c(F)c1 (single isomer, unassigned)
output: 243

input: Fill in the recorded Maximum % activity (without co-corrector) for this compound, with F508delCFTR (Homo sapiens, UniProt P13569, DEL508-508) as test system: COc1ccc(C)cc1[C@]1(C(=O)NS(=O)(=O)c2cccc3nc(C)ccc23)C[C@@H]1c1ccc(C(C)C)nc1OC (single isomer, unassigned)
output: 910

input: Fill in the recorded Maximum % activity (without co-corrector) for this compound, with F508delCFTR (Homo sapiens, UniProt P13569, DEL508-508) as test system: COc1ccc(C)cc1[C@@]1(C(=O)NS(=O)(=O)c2cccc3nc(C)ccc23)C[C@H]1c1ccc(C)nc1OC (single isomer, unassigned)
output: 786
